Tested on: MDA-MB-468 breast
assay_notes: NCI-60 one-dose screen, 48 h
run_conditions: 10 µM unless noted
About 83,000 compounds went through this panel and 20% of them were active in at least one assay; those are over-represented in the sample as a whole. Activity calls are given as the source filed them. How the source made its calls: active means growth percent below 10; inactive means the rest.
Classes used: active, inactive

compound: N=c1ccc2nc3c(cc(N)c4ccccc43)oc-2c1
class_label: active

compound: CCCCCCNC(=O)Oc1ccc(/C(=C(/C)Cc2ccc(OC)cc2)c2ccc(OCCN(C)C)cc2)cc1
class_label: inactive

compound: COc1ccc(CNc2c3ccccc3nc3ccccc23)c(OC)c1
class_label: active

compound: Clc1ccc(N/N=C/c2ccccn2)nc1
class_label: active

compound: CN1C(=O)N(C)C2(c3ccccc3)N(CC(=O)Nc3ccccc3O)C(=O)NC12c1ccccc1 (centres undefined)
class_label: inactive

compound: C=CC[Se]C(=O)Cc1c(C)n(C(=O)c2ccc(Cl)cc2)c2ccc(OC)cc12
class_label: active

compound: O=C(Nc1cccnc1Nc1ccc(F)cc1)c1cn(Cc2cccc(Oc3ccccc3)c2)nn1
class_label: inactive

compound: Oc1[nH]c2ccccc2c1/C=c1/ccc2c(c1)N=C(c1cc(F)cc(F)c1)N=2
class_label: inactive

compound: COc1ccc(-c2nc(C(Cl)Cl)nc3cc(-c4ccccc4)nn23)cc1
class_label: active

compound: COc1ccc(-c2nc(NC(=O)CS(=O)(=O)c3ccc(F)cc3)sc2C)cc1
class_label: inactive

compound: Brc1cccc(-c2cc(-c3ccc4c(c3)OCCO4)[nH]n2)c1
class_label: active

compound: COc1ccc(/C=C/C(=O)/C=C/c2cc3ccc(Cl)cc3[nH]c2=O)cc1
class_label: inactive

compound: Cc1cc(C)c(S(=O)(=O)/N=c2/n(-c3ccccc3)nc3n2CCN3C2=NCCN2)c(C)c1
class_label: inactive

compound: Nc1[nH]n2cc(-c3ccccc3)nc2c1N=Nc1ccc(S(N)(=O)=O)cc1
class_label: inactive

compound: C[C@H](c1nc2ccc(N)cc2[nH]1)[C@H]1CC[C@H]2[C@@H]3CCC4=CC(=O)CC[C@]4(C)[C@H]3CC[C@]12C
class_label: inactive

compound: O=C(Nc1ncc(Cc2cccc(C(F)(F)F)c2)s1)c1ccc2c(c1)OCCO2
class_label: inactive

compound: CCOC(=O)C1=NNC(c2ccc(Cl)cc2)C1C(=O)N1C(=S)NC(=O)C1CC(C)C (centres undefined)
class_label: inactive

compound: CCCCCCNC(=O)Oc1ccc(/C(=C(/C)c2ccccc2)c2ccc(OCCN(C)C)cc2)cc1
class_label: inactive

compound: COc1cnc2c(c1)C(=O)c1c-2n(CCCNC2=NCCS2)c(=O)c2cc(F)ccc12
class_label: active

compound: CCCCCN(CCCCC)CC(O)c1c(Cl)ccc2ccccc12 (centres undefined)
class_label: inactive

compound: COc1nc(Nc2cccc(C(F)(F)F)c2)nc(OC)n1
class_label: inactive

compound: CC(=O)O[C@H]1CC[C@]2(C)[C@H]3CC=C4[C@@H]5CC(C)(C)CC[C@]5(C(=O)N5CCN(CCC#N)CC5)CC[C@@]4(C)[C@]3(C)CC[C@H]2C1(C)C
class_label: inactive

compound: COc1ccc2nc3cc(Cl)ccc3c(Nc3ccc(N(C)C)cc3)c2c1
class_label: inactive

compound: COc1cc2c(cc1O)c(=O)n(CCN(C)C)c1c3cc4c(cc3ncc21)OCO4
class_label: active

compound: OCC(O)COc1ccc(Cl)cc1Cl (centres undefined)
class_label: inactive

compound: COc1cccc(Cc2nn3cc(-c4ccccc4)nc3s2)c1
class_label: inactive

compound: COc1ccc(CCN2C(=O)/C(=C/c3ccc(C4Oc5ccccc5C5CC(c6cccc(OC)c6)=NN54)cc3)SC2=S)cc1 (centres undefined)
class_label: inactive

compound: CC[C@@H](C)/C=C(C)/C=C/C(=O)c1c(O)c(-c2ccc(OC(=O)[C@@]34CC[C@@](C)(C(=O)O3)C4(C)C)cc2)cn(O)c1=O
class_label: active

compound: COc1cccc(/C=C2\Oc3cc(OCCCN4CCCC4)ccc3C2=O)c1OC
class_label: inactive

compound: COc1ccc(N=Nc2ccc(O)c(=O)cc2)cc1
class_label: active

compound: COc1ccc(Cn2nc3c(c2-c2cc(OC)c(OC)c(OC)c2)-c2oncc2CC3)cc1
class_label: inactive

compound: Cc1ccc(C=C2C(Cl)=C(Cl)C(Cl)=C2Cl)cc1
class_label: active

compound: NCCCn1c2c(c3cc(-c4ccn[nH]4)ccc3c1=O)C(=O)c1ccccc1-2
class_label: inactive

compound: ClCc1cccc(CSc2ncnc3c2ncn3Cc2cccc(CCl)c2)c1
class_label: active

compound: CCN1CCN(C(=O)[C@]23CCC(C)(C)C[C@H]2C2=CC[C@@H]4[C@@]5(C)CC/C(=N/O)C(C)(C)[C@@H]5CC[C@@]4(C)[C@]2(C)CC3)CC1
class_label: inactive

compound: CCN(CC)Cc1cc(C=C2C(=O)NC(=S)NC2=O)cc(OC)c1O
class_label: inactive

compound: Nc1n[nH]c2cccc(C#Cc3cccc(NC(=O)c4cc(N5CCOCC5)cc(C(F)(F)F)c4)c3)c12
class_label: inactive

compound: CCCCc1nc(Cl)c(CO)n1Cc1ccc(-c2ccccc2-c2nn[nH]n2)cc1
class_label: inactive

compound: CCc1cc(O)ccc1Nc1cc(-c2ccc(-n3cccn3)cc2)[nH]n1
class_label: inactive
